assay: CellTiter-Glo cell viability assay; type: cell-based, murine; conditions: mouse, parental Ba/F3 cells, CTG, parental, 0.1 nM, single replicates; read-out: cell viability
I'd be grateful if you could share measured viability at 3 days, 0.0001 µM for these entries.
Give your result in % as a bare value.

*Q* Given C=CC(=O)Nc1ccc2[nH]c(=O)n(C3CCN(Cc4ccc(-c5ncc(Cc6cn[nH]c6)cc5-c5ccccc5)cc4)CC3)c2c1 [compound 14] , state its recorded viability at 3 days, 0.0001 µM.
*A* 101

*Q* Follow-up entry: C=CC(=O)Nc1ccc2[nH]c(=O)n(C3CCN(Cc4ccc(-c5ncccc5-c5ccccc5)cc4)CC3)c2c1 [compound 1]
*A* 100

*Q* Follow-up entry: C=CC(=O)Nc1ccc2[nH]c(=O)n(C3CCN(Cc4ccc(-c5ncc(Cc6ccc(N)nc6)cc5-c5ccccc5)cc4)CC3)c2c1 [compound 20]
*A* 104

====

I'd be grateful if you could share measured Log ratio IC50 [Akt] / IC50 [Akt], Akt1 / Akt2 for these entries.
target: UniProt P31749; assay: STK HTRF KinEASE activity-based assay (IC50); conditions: biochemical activity based assay, log units
Sequence (P31749 whole entry): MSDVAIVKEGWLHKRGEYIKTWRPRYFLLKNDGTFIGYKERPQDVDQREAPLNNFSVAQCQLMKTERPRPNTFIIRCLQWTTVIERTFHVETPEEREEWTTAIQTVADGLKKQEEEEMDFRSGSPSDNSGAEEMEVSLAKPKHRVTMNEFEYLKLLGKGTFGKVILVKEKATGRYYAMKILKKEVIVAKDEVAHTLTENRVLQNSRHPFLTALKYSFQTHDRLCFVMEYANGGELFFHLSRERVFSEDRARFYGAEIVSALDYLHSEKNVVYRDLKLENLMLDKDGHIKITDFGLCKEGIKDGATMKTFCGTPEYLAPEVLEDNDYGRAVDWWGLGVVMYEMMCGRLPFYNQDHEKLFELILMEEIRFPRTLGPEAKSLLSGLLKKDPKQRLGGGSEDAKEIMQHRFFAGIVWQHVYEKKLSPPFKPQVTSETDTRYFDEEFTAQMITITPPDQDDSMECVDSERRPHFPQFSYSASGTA
// keep it numeric: no unit symbol after the value

*Q* Given C=CC(=O)Nc1ccc2[nH]c(=O)n(C3CCN(Cc4ccc(-c5ncc(Cc6cccc(O)c6)cc5-c5ccccc5)cc4)CC3)c2c1 [compound 16] , state its recorded Log ratio IC50 [Akt] / IC50 [Akt], Akt1 / Akt2.
*A* 1.14

*Q* Follow-up entry: C=CC(=O)Nc1ccc2[nH]c(=O)n(C3CCN(Cc4ccc(-c5ncc(Cn6ccnc6)cc5-c5ccccc5)cc4)CC3)c2c1 [compound 11]
*A* 0.93

*Q* Follow-up entry: C=CC(=O)Nc1ccc2[nH]c(=O)n(C3CCN(Cc4ccc(-c5nc(C)c(=O)[nH]c5-c5ccccc5)cc4)CC3)c2c1 [15a, reference compound]
*A* -2.52

*Q* Follow-up entry: C=CC(=O)Nc1ccc2[nH]c(=O)n(C3CCN(Cc4ccc(-c5ncc(Cc6ccc(C)o6)cc5-c5ccccc5)cc4)CC3)c2c1 [compound 15]
*A* -0.37

*Q* Follow-up entry: C=CC(=O)Nc1ccc2[nH]c(=O)n(C3CCN(Cc4ccc(-c5ncc(Cc6cn[nH]c6)cc5-c5ccccc5)cc4)CC3)c2c1 [compound 14]
*A* 1.35

*Q* Follow-up entry: C=CC(=O)Nc1ccc2[nH]c(=O)n(C3CCN(Cc4ccc(-c5ncc(Cc6ccc(N)cc6)cc5-c5ccccc5)cc4)CC3)c2c1 [compound 19]
*A* 0.55

====

assay: CellTiter-Glo cell viability assay; format: cell-based, murine; settings: mouse, parental Ba/F3 cells, CTG, parental, 5000 nM, single replicates
Outcome Measure: viability at 3 days, 5 µM

*Q* Given C=CC(=O)Nc1ccc2[nH]c(=O)n(C3CCN(Cc4ccc(-c5[nH]c(=O)c(CC(C)C)nc5-c5ccccc5)cc4)CC3)c2c1 [16b, reference compound] , state its recorded viability at 3 days, 5 µM.
*A* 98%

*Q* Follow-up entry: C=CC(=O)Nc1ccc2[nH]c(=O)n(C3CCN(Cc4ccc(-c5ncc(Cc6cn[nH]c6)cc5-c5ccccc5)cc4)CC3)c2c1
*A* 105%

*Q* Follow-up entry: C=CC(=O)Nc1ccc2[nH]c(=O)n(C3CCN(Cc4ccc(-c5ncc(Cc6ccc(N)nc6)cc5-c5ccccc5)cc4)CC3)c2c1
*A* 83.7%

*Q* Follow-up entry: C=CC(=O)Nc1ccc2[nH]c(=O)n(C3CCN(Cc4ccc(-c5ncccc5-c5ccccc5)cc4)CC3)c2c1
*A* 106%
